- assay: chemical genetic growth profiling, strain panel (AID 1159580);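 also: tested at 20 µM; growth read once vehicle control cultures reached saturation at 30 °C; 1 = growth at the plate median or of vehicle wells; lower values mean less growth of the strain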
- conditionInfo: S. cerevisiae deletion strains, growth OD, locus YMR001C, strain CDC5
In all, about 5,500 compounds went through this assay and about 2,000 (36%) were called active. Roughly 18% stayed inconclusive and do not appear here. Rule as the data show it: active = normalized growth mostly below about 0.91 (no sharp cut-off); inconclusive = no clear call, values can overlap the other calls; inactive = mostly above about 0.92. Some of the results follow.
Hi! Could you answer with just one of these? t (active), f (inactive)

Record excerpt, results attached:
Cc1nn(Cc2cccc(C(=O)O/N=C(/N)c3ccc(Cl)cc3)c2)c(C)c1Br : f
O=C(OCc1ccc(Oc2ccc(Cl)cc2Cl)c([N+](=O)[O-])c1)c1ccc([N+](=O)[O-])o1 : f
Cc1nc([N+](=O)[O-])cn1CC(=O)c1ccc(Cl)cc1 : f
COC(=O)c1ccc(Oc2c(C(F)(F)F)oc3cc(O)ccc3c2=O)cc1 : f

Q: Recorded test outcome, item N#CC(C#N)=NNc1cc(C(F)(F)F)ccc1OCC(F)(F)F
Result: f

Q: Recorded test outcome, item CCCCc1ccc(N=CNO)c(C)c1
Result: f

---

- assay: chemical genetic growth profiling, strain panel (AID 1159580);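 also: tested at 20 µM; growth read once vehicle control cultures reached saturation at 30 °C; 1 = growth at the plate median or of vehicle wells; lower values mean less growth of the strain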
- conditionInfo: S. cerevisiae deletion strains, growth OD, locus YAL013W, strain DEP1, active compounds read low
Among all 5,500 compounds or so, about 2,000 (36%) were called active. About 18% were inconclusive and are not listed. The list shows a part of the results.
Answer each item with its documented normalized growth.
Answers are plain numbers.

Would you please look over these solved cases?
O=C(O)CNC(=O)C(CS)Cc1ccccc1 (stereo not drawn) : 1.01
CCOC(=O)CC1=Nn2c(nnc2-c2cc(Cl)cc(Cl)c2)SC1 : 0.97
C[N+]1(C)C2CC[C@H]1CC(OC(=O)C(O)c1ccccc1)C2 (stereo partly drawn) : 0.996
COc1ccc2[nH]c(I)c(CCNC(C)=O)c2c1 : 1.03

Give measured normalized growth for every item shown.
1. O=C(NCCNc1ccc(C(F)(F)F)cc1[N+](=O)[O-])c1cccs1
2. S=c1[nH]nc(-c2ccco2)n1-c1ccc2c(c1)OCCO2
3. FC(F)(F)c1cc(NC2=NCCN=C(Nc3cc(C(F)(F)F)cc(C(F)(F)F)c3)SS2)cc(C(F)(F)F)c1
4. COc1ccc(/C=N\NC(=O)CC#N)cc1OC
5. O=c1cc(-c2ccc(O)cc2)oc2cc(O[C@@H]3O[C@H](CO)[C@@H](O)[C@H](O)[C@H]3O[C@@H]3OC[C@](O)(CO)[C@H]3O)cc(O)c12
6. COc1ccc2[nH]cc(CCNC(C)=O)c2c1
7. CC(=O)/C(=C\N(C)C)Sc1ccc(Cl)cc1

Result:
1. 0.974
2. 0.998
3. 1.01
4. 1
5. 1.01
6. 1.01
7. 0.883

Give measured normalized growth for every item shown.
1. CSC(=Nc1ccc(C(C)C)cc1)NC#N
2. N#CCCNc1cc(C(F)(F)F)cc(C(F)(F)F)c1
3. COc1ccc(-n2c(SCc3ccc(Br)cc3)nnc2-c2ccco2)cc1
4. COc1ccc(/C=C(\C#N)c2nc3ccccc3[nH]2)cc1OC
5. CCSC(SCC)[C@H](O)[C@@H](O)[C@H](O)CO

Result:
1: 0.993; 2: 0.98; 3: 0.972; 4: 0.947; 5: 0.976

Give measured normalized growth for every item shown.
1. Nn1nnc2ccccc21
2. O=C(CSc1nnc(-c2ccco2)n1-c1ccc2c(c1)OCCO2)c1cccc(F)c1
3. S=c1nc(-c2ccccc2)[nH][nH]1
4. CCCc1nc(C(C)(C)O)c(C(=O)OCc2oc(=O)oc2C)n1Cc1ccc(-c2ccccc2-c2nn[nH]n2)cc1
5. CNC(=O)CSP(=S)(OC)OC

Result:
1. 1.01
2. 0.983
3. 0.997
4. 0.99
5. 1.02

Give measured normalized growth for every item shown.
1. Cc1ccc(S(=O)(=O)Oc2cc(=O)n(C)c3ccccc23)cc1
2. COP(=S)(OC)SCn1nnc2ccccc2c1=O

Result:
[0.95, 0.987]
